# reported remaining at 1 h, 10000 µM; entries follow
experiment: Drug degradation assessed as bovine pancreas chymotrypsin-mediated compound hydrolysis by measuring remaining compound levels at 10 mM measured at 1 hr by RP-HPLC method; type: ADME, Bos taurus; details: cattle, read-out: Stability

molecule	measurement unit	remaining at 1 h, 10000 µM
CC(=O)N[C@@H](Cc1ccccc1)C(=O)NCC(=O)N[C@@H](CCCNC(=N)N)C(=O)N[C@@H](CCCCN)C(=O)N[C@@H](CCCCN)C(=O)N[C@@H](CCCNC(=N)N)C(=O)N[C@@H](CCCNC(=N)N)C(=O)N[C@@H](CCC(N)=O)C(=O)N[C@@H](CCCNC(=N)N)C(=O)N[C@@H](CCCNC(=N)N)C(=O)N[C@@H](CCCNC(=N)N)C(N)=O	%	86
CC(=O)N[C@@H](Cc1ccccc1)C(=O)NCC(=O)N[C@H]1C[C@@H](C(=O)N[C@@H](CCCCN)C(=O)N[C@@H](CCCCN)C(=O)N[C@@H](CCCNC(=N)N)C(=O)N[C@H]2C[C@@H](C(=O)N[C@@H](CCC(N)=O)C(=O)N[C@H]3C[C@@H](C(=O)N[C@@H](CCCNC(=N)N)C(=O)N[C@H]4C[C@@H](C(=O)NCCC(N)=O)N(CCCNC(=N)N)C4)N(CCCNC(=N)N)C3)N(CCCNC(=N)N)C2)N(CCCNC(=N)N)C1	%	100
